Hello, the source for this data is ChEMBL document CHEMBL4118122, in case you need it.

Molecular target: Adenosine receptor A1 (Homo sapiens, UniProt P30542)
Sequence (P30542 whole entry): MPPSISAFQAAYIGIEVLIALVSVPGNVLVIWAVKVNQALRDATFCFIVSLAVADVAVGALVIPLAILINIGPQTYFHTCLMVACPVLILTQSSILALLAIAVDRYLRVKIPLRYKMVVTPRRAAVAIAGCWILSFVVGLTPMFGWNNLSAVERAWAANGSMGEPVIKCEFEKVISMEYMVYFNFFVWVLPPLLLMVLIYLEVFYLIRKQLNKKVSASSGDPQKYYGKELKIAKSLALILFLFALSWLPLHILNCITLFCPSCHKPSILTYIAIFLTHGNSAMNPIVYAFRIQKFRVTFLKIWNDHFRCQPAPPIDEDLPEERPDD
Assay: Displacement of [3H]-DPCPX from human recombinant adenosine A1 receptor after 60 mins by scintillation counting analysis
Parameter: IC50 (nM)
Provide only the numeric value, understood in nM.

Query block: Returns the measured IC50 for the input compound. Input: CC(C)(C)NS(=O)(=O)c1ccc(-c2sc(C(=O)N[C@H]3C[C@H](C(=O)O)C3)nc2CC2CCCCC2)c2ccccc12
Result block: 0.61

====

assay: Binding affinity to GABA-gated chloride channel (unknown origin) by antagonist radioligand binding assay; parameters: species or system Homo sapiens
Parameter: IC50 (nM)
Write the value in nM as a bare number.

Query block: Would you mind telling me what IC50 value was observed for CC(C)(C)NS(=O)(=O)c1ccc(-c2sc(C(=O)N[C@H]3C[C@H](C(=O)O)C3)nc2CC2CCCCC2)c2ccccc12 ?
Result block: 220

====

molecular target: Endothelin-1 receptor (Homo sapiens, UniProt P25101); experiment: Displacement of [125I]-endothelin-1 from human recombinant ETA receptor after 120 mins by scintillation counting analysis
Sequence (P25101 whole entry): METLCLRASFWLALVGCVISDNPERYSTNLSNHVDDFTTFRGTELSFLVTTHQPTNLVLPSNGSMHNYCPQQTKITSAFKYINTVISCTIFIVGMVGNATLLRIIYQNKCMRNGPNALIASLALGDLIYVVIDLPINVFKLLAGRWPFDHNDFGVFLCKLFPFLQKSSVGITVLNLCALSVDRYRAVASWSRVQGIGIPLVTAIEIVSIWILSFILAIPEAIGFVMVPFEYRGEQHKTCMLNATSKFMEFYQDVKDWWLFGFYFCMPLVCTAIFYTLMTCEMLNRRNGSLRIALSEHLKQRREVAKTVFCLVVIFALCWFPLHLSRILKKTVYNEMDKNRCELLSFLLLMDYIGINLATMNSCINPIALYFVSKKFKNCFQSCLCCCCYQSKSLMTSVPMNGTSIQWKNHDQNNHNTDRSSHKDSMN
Parameter: IC50 (nM)
Field format: number, assumed nM, no unit text.

Query block: Bench note: what IC50 did CC(C)(C)NS(=O)(=O)c1ccc(-c2sc(C(=O)N[C@H]3C[C@H](C(=O)O)C3)nc2CC2CCCCC2)c2ccccc12 show?
Result block: 0.023

====

assay: Clearance in Sprague-Dawley rat at 1 mg/kg, iv; format: ADME, organism-based; conditions: in vivo
Reported clearance values for the following compounds.
Your answer should be a plain number; it is taken to be in mL/min/kg.

Here's what some known entries look like.
CC(C)(C)NS(=O)(=O)c1ccc(-c2sc(C(=O)N[C@H]3C[C@H](C(=O)O)C3)nc2CC2CCCCC2)c(Cl)c1 : 107
C[C@H](NS(=O)(=O)c1ccc(-c2sc(C(=O)NCC(C)(C)O)nc2CC2CC2)c2ccccc12)C(F)(F)F : 40.7
C[C@H](NS(=O)(=O)c1ccc(-c2sc(C(=O)NCC(C)(C)O)nc2CC2CCC2)c(C(F)F)c1)C(F)(F)F : 46.7

Query block: Could you tell me which clearance is on file for CC(C)(C)NS(=O)(=O)c1ccc(-c2sc(C(=O)N[C@H]3C[C@H](C(=O)O)C3)nc2CC2CCCCC2)c2ccccc12 ?
Result block: 51.4

Query block: Could you do the same for C[C@H](NS(=O)(=O)c1ccc(-c2sc(C(=O)NC3CCS(=O)(=O)CC3)nc2CC2CC2)c2ccccc12)C(F)(F)F , please?
Result block: 21.6

====

molecular target: Histamine H2 receptor (Homo sapiens, UniProt P25021); experiment: Displacement of [125I]APT from human recombinant histamine H2 receptor after 120 mins by scintillation counting analysis
Sequence (P25021 whole entry): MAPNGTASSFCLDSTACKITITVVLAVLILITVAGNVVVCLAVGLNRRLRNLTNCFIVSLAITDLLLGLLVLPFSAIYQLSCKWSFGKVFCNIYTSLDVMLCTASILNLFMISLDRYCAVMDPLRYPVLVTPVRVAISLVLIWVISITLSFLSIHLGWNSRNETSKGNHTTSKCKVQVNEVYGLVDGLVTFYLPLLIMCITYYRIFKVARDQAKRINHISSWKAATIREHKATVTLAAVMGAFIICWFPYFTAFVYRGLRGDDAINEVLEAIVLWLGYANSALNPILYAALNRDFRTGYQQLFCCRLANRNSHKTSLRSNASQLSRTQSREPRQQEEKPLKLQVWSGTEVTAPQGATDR
Parameter: IC50
Note to self: number, then unit, no commentary.

Query block: Please report the recorded IC50 for CC(C)(C)NS(=O)(=O)c1ccc(-c2sc(C(=O)N[C@H]3C[C@H](C(=O)O)C3)nc2CC2CCCCC2)c2ccccc12 .
Result block: 142 nM

====

Biological target: Cytochrome P450 2C8 (Homo sapiens)
Sequence (P10632 whole entry): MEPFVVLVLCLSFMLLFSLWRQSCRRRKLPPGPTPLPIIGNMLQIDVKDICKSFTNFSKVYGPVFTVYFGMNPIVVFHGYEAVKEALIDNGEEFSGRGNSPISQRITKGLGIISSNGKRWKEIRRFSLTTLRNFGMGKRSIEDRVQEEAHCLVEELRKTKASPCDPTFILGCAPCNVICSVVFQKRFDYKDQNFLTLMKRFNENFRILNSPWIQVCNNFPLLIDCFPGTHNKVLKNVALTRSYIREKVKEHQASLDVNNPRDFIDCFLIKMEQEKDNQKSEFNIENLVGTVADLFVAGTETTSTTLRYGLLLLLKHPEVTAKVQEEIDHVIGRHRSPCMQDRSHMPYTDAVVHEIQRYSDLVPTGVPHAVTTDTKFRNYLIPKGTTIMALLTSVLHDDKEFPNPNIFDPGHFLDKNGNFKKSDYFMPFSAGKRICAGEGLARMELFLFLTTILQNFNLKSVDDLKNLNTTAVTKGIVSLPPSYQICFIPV
Test: Inhibition of CYP2C8 (unknown origin)
Type: ADME
Parameter: INH

Answered examples (5):
C[C@H](NS(=O)(=O)c1ccc(-c2sc(C(=O)NC3CCS(=O)(=O)CC3)nc2CC2CC2)c2ccccc12)C(F)(F)F : > 10 µM
CCC(C)(C)NS(=O)(=O)c1ccc(-c2sc(C(=O)N[C@H]3C[C@H](C(=O)O)C3)nc2CC2CCCCC2)c(Cl)c1C : 1.8 µM
C[C@H](NS(=O)(=O)c1ccc(-c2sc(C(=O)NCC(C)(C)O)nc2COC(C)(C)C)c(Cl)c1Cl)C(F)(F)F : > 10 µM
C[C@H](NS(=O)(=O)c1ccc(-c2sc(C(=O)NCC(C)(C)O)nc2CC2CCC2)c(C(F)F)c1)C(F)(F)F : > 10 µM
C[C@H](NS(=O)(=O)c1ccc(-c2sc(C(=O)NCC(C)(C)O)nc2CC2CC2)c2ccccc12)C(F)(F)F : 3.3 µM

Query block: Please give the measured INH for this compound: CC(C)(O)CNC(=O)c1nc(CC2CCCCC2)c(-c2ccc(S(=O)(=O)NC3(C#N)CC3)c3ccccc23)s1
Result block: 7.3 µM

Query block: Entry CC(C)(C)NS(=O)(=O)c1ccc(-c2sc(C(=O)N[C@H]3C[C@H](C(=O)O)C3)nc2CC2CCCCC2)c2ccccc12 please
Result block: 3.8 µM

Query block: Same question, CC(C)(O)CNC(=O)c1nc(CC2CCCCC2)c(-c2ccc(S(=O)(=O)NC(C)(C)C)c(Cl)c2C(F)F)s1 this time
Result block: 4.6 µM

Query block: Proceed to CC(C)NS(=O)(=O)c1ccc(-c2sc(C(=O)N[C@H]3C[C@H](C(=O)O)C3)nc2CC2CCCCC2)c(C(F)F)c1Cl
Result block: 6.2 µM

Query block: Check CC(C)(C)NS(=O)(=O)c1ccc(-c2sc(C(=O)N[C@H]3C[C@H](C(=O)O)C3)nc2CC2CCCCC2)c(Cl)c1 too.
Result block: 3.5 µM

Query block: Now consider CC(C)(C)NS(=O)(=O)c1ccc(-c2sc(C(=O)NCCN3CCOCC3)nc2CC2CCCCC2)c2ccccc12 and answer again.
Result block: 2.8 µM

Query block: Same for CC(C)(C)NS(=O)(=O)c1ccc(-c2sc(C(=O)N[C@H]3C[C@H](C(=O)O)C3)nc2CC2CCCCC2)c2c1CCCC2
Result block: 4.2 µM

Query block: Param item: CC(C)(O)CNC(=O)c1nc(CC2CCCCC2)c(-c2cnc(S(=O)(=O)NC(C)(C)C)c3ccccc23)s1
Result block: > 10 µM

Query block: Next compound up: CC(C)(C)NS(=O)(=O)c1ccc(-c2sc(C(=O)N[C@H]3C[C@H](C(=O)O)C3)nc2CC2CCCCC2)c(C(F)(F)F)c1
Result block: 3.4 µM

====

// Cmax lookup, one value per entry
experiment: Cmax in Sprague-Dawley rat at 2.5 mg/kg, po; type: ADME, organism-based; parameters: dose 2.5 mg/kg, route oral; conditions: in vivo
I only need the number, in ng/mL, no unit after it.

Sample answers from the record:
CC(C)(C)NS(=O)(=O)c1ncc(-c2sc(C(=O)N[C@H]3C[C@H](C(=O)O)C3)nc2CC2CCCCC2)c2ccccc12 : 52
CCC(C)(C)NS(=O)(=O)c1ccc(-c2sc(C(=O)N[C@H]3C[C@H](C(=O)O)C3)nc2CC2CCCCC2)c(Cl)c1C : 52

Then there is this compound:
Query block: Recorded Cmax of CC(C)(C)NS(=O)(=O)c1ccc(-c2sc(C(=O)N3CC4(C3)CS(=O)(=O)C4)nc2CC2CCCCC2)c(Cl)c1Cl , please.
Result block: 269

====

assay: Thermodynamic solubility of the compound in 30 mM phosphate buffer at 10 mM at pH 7 after 2 to 5 days by UV-HPLC analysis; type: physicochemical; conditions: read-out: Therm_solubility
solubility thermodynamic at 10000 µM for assorted compounds

C[C@H](NS(=O)(=O)c1ccc(-c2sc(C(=O)NCC(C)(C)O)nc2CC2CCC2)c(C(F)F)c1)C(F)(F)F : < 4 µM
CCC(C)(C)NS(=O)(=O)c1ccc(-c2sc(C(=O)N[C@H]3C[C@H](C(=O)O)C3)nc2CC2CCCCC2)c(Cl)c1C : < 1 µM
C[C@H](NS(=O)(=O)c1ccc(-c2sc(C(=O)NC3CCS(=O)(=O)CC3)nc2CC2CC2)c2ccccc12)C(F)(F)F : < 4 µM
CC(C)(C)NS(=O)(=O)c1ccc(-c2sc(C(=O)N[C@H]3C[C@H](C(=O)O)C3)nc2CC2CCCCC2)c2ccccc12 : < 1 µM
CC(C)(C)NS(=O)(=O)c1ccc(-c2sc(C(=O)N[C@H]3C[C@H](C(=O)O)C3)nc2CC2CCCCC2)c(Cl)c1 : 6.6 µM

Query block: Report solubility thermodynamic at 10000 µM for CC(C)(C)NS(=O)(=O)c1ccc(-c2sc(C(=O)N[C@H]3C[C@H](C(=O)O)C3)nc2CC2CCCCC2)c(C(F)(F)F)c1 please.
Result block: < 4 µM

Query block: What do you get for CC(C)(O)CNC(=O)c1nc(CC2CCCCC2)c(-c2ccc(S(=O)(=O)NC3(C#N)CC3)c3ccccc23)s1 ?
Result block: 10 µM
